Each recorded value in this set is attributed to the NTF2 design screens of Basanta et al. (2020).

test_name: protease stability score; higher = more stable; yeast display proteolysis, trypsin and chymotrypsin;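 also: log10 excess protease needed over predicted unfolded state with 0 meaning unfolded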
reported_property: protease stability score

[[record]]
sequence_string = "DESLADVFRRLLEAYRNGDEQKLRDNVDPNAKFNIGDKRFSGREQFARDMHKERKEIRVSIQLHEYDNQGEDVDFTFQFSAEVNGEPVHDTVRVEVHAHNGKIKRVHMHMSEKFQHQLRG"
reported_property = "protease stability score"
recorded_result = -0.027

[[record]]
sequence_string = "DQKVNEFFKHVVKVEENGDTDKYRDNFDKDARAVYGDKRVTGNDELADTMRRTRHDMKYDVRSMDVQVRNGRVTVDVKVDVRVDGKPHSLKETIEMEVDNGKVKEVRVDFDPDQRRKVER"
reported_property = "protease stability score"
recorded_result = -0.188

[[record]]
sequence_string = "DDEKKAKSFVDDLRKILKTGDPEQMRDNADKDARLVIGDQTFHGREDAASKLVTLVKRFDHARFNVKSMTMHNGRIDVDMTFTLRVDGKNERHRVKITVEEHNGRLKMKEVHWS"
reported_property = "protease stability score"
recorded_result = 0.991

[[record]]
sequence_string = "DEDDQKLITEFLKALERGDPDRLLENADPNASARVGDKDVHGMHNAATDWVRERNSMDVTYDSVEIHVHNGRATIHLDAQFDFNGKPWRDTMTVEIVIRNGKIKDIIFRFDEQQLRDITK"
reported_property = "protease stability score"
recorded_result = 0.714

[[record]]
sequence_string = "DEDAVRKAKQWVKALRDGDEDELREQVDPNARINVGDKTFHGMDEFVKDVLKTHSEQRVNFDIKSVNASNGRVDMKMDATFDINGEPKTFSLVLTVDFHNGRAKQLEVKFDPKVKEDLTK"
reported_property = "protease stability score"
recorded_result = 0.769


* * *

Below, each entry is listed with its recorded protease stability score.
test_name: protease stability score; higher = more stable; yeast display proteolysis, trypsin and chymotrypsin;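 also: log10 excess protease needed over predicted unfolded state with 0 meaning unfolded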
reported_property: protease stability score

[[record]]
sequence_string = "DEERVRQIADKMFKAIISGNSKDVQQVVKPNIQYEYGDEKYQGPKVVDQLVKVVKKIGAEVREREKTVHGDTMTAVFQYHKGDTTVQTEAEVKYEGDKAKRLRVKLSEEAQKVIKQG"
reported_property = "protease stability score"
recorded_result = -0.114

[[record]]
sequence_string = "DEEVFDEFIKHMETGDFRYLQRMFDPNAKASVGNKTVHGREQVQTLLEQLHSQVDHYHLKDVDNNENRMRVHFVLNVNGKNIEAENVFEVRNGRLKHLSIKFRNPEDQEDARRRLE"
reported_property = "protease stability score"
recorded_result = 1.12

[[record]]
sequence_string = "DEEAVEIAHEVNKALNENDEHRLRELFDPNAKIQYGDNVIKGSDNLVKDIRRKSKRMRVRFDVKSIDNQGDKVEIDANYRQTHDGEPRTRKVDAKLRVENGRIKHFSARFTP"
reported_property = "protease stability score"
recorded_result = -0.044


* * *

test_name: protease stability score; higher = more stable; yeast display proteolysis, trypsin and chymotrypsin;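 also: log10 excess protease needed over predicted unfolded state with 0 meaning unfolded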
Outcome label depends on protease stability score relative to 0.6: at/above gives condition met, below gives condition not met.

[[record]]
sequence_string = "DEDDKQRHAEKYAKLWQEGNEDELQKQMDPNAKVVVGEKRLKGREQIKKWLEEWRKHADEVQVISVSVEGERLVIRFRANINGKTYHDTQTMIYDNGEIQDVRFDPKWLHDLKR"
category_label = "condition met"

[[record]]
sequence_string = "DEDLKQQFDELVEIKKNGDEDRLVEQADENVKAQVGDKDVHGMKEIAHNIRHTVERIRVEIKSMEVDAQGNRVHVENDFVENNNGKPHRKVVDMKFIFHNGTLKSYTERDDK"
category_label = "condition not met"

[[record]]
sequence_string = "DEKQLVEVIREVIKALQQGHRDKVKKLGGPNVEVQAADYRNKGPEAILHMAEIVQRIGDEFQYRRTEQKGGTVTTTVEVHVGGHTVRYEVNAEAEGGKLKYWQADDDDKFIQHVKES"
category_label = "condition met"

[[record]]
sequence_string = "DEDRMKRLVRIFEHGDEDKLRKQADENATLKVGNHEIHGREEVQTFAQILKERVDHFHVRRVDLKGNSITALVRATVNGQSVEFKVIIVVQNGRIKKITIHATSEEQMKQLDKLFS"
category_label = "condition met"

[[record]]
sequence_string = "DPTKALRLADTALRAFANGNSDQVKQHLKPDVRARVVDEETQGVDQIVKQLQHFVKVGVQRQVDEVRHEGNQVEAHTQYQVGDNQATMTVVYRAQNGKVDEIEVRYDERAKKIFEQG"
category_label = "condition not met"

[[record]]
sequence_string = "DEEDAEDVVRKVNKILRDGDWEKFVNLMDKNAHARIGDQTYSGRSAAEDIARDVHRQVDHVEIKRVEVQGNTVHIDMVVEHNGREEKRVMDLIITNGRLRMVEYQHG"
category_label = "condition not met"

